Target: BRD7 (Homo sapiens)
Construct: T7 phage strains displaying bromodomains were grown in parallel
Sequence (Q9NPI1 131-235 limits assumed): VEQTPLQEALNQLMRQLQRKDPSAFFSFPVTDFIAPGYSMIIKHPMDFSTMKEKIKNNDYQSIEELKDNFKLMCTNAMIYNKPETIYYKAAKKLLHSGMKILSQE
Assay: BromoKdMAX (BROMOscan, DiscoverX)
pKd: −log10 of the molar value.
Assay readout: pKd

# input Look up pKd for this compound: COc1cncc(-c2cc(Nc3cccc(F)c3)nc([C@@H]3CC[C@H](C)N(C(C)=O)C3)n2)c1 [Compound 00004]
# output < 5.00

----------
Molecular target: BRD8(2) (Homo sapiens)
Construct: T7 phage strains displaying bromodomains were grown in parallel
Sequence (Q9H0E9 1099-1207 limits assumed): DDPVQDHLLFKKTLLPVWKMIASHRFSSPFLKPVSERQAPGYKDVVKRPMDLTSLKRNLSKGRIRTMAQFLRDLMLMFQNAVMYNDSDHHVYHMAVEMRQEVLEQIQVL
Test: BromoKdMAX (BROMOscan, DiscoverX)
Assay readout: Kd

# input Look up Kd for this molecule: `COc1cncc(-c2cc(Nc3cccc(F)c3)nc([C@@H]3CC[C@H](C)N(C(C)=O)C3)n2)c1`
# output > 10 µM

----------
Target: FALZ (Homo sapiens)
Construct: T7 phage strains displaying bromodomains were grown in parallel
Test: BromoKdMAX (BROMOscan, DiscoverX)
Details: FALZ (BPTF)
Assay readout: Kd

# input API: value(readout=Kd, system=FALZ (Homo sapiens)) for record `COc1cncc(-c2cc(Nc3cccc(F)c3)nc([C@@H]3CC[C@H](C)N(C(C)=O)C3)n2)c1`
# output > 10 µM

----------
Target: GCN5L2 (Homo sapiens, UniProt Q92830)
Construct: T7 phage strains displaying bromodomains were grown in parallel
Sequence (Q92830 728-832 limits assumed): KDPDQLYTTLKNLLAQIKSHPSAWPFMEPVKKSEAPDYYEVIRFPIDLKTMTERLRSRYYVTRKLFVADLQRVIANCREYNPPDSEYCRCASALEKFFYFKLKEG
Assay: BromoKdMAX (BROMOscan, DiscoverX)
Conditions: GCN5L2 (KAT2A)
pKd: −log10 of the molar value.
Assay readout: pKd

# input Look up pKd for this molecule: COc1cncc(-c2cc(Nc3cccc(F)c3)nc([C@@H]3CC[C@H](C)N(C(C)=O)C3)n2)c1 [Compound 00004]
# output < 5.00

----------
Reported values of pEC50 for individual entries
System: A375 cells
Assay: Assay 1: A375 cells treated with S1152, S1008 and compound, immunofluorescence (sc-365823) signal
Assay type: cell-based
Settings: 1 μM S1152 + 0.5 μM S1008, one day
pEC50: −log10 of the molar value.

Molecule: CC(=O)N1C[C@H](c2nc(Nc3ccc4[nH]nnc4c3)cc(-c3cccnc3)n2)CC[C@@H]1C
pEC50: 6.00 to 6.70
//
Molecule: CC(=O)N1C[C@H](c2nc(Nc3cc(F)c4cn[nH]c4c3)cc(-c3cccnc3)n2)CC[C@@H]1C
pEC50: > 6.70
//
Molecule: COc1cncc(-c2cc(Nc3cccc(Cl)c3)nc([C@@H]3CC[C@H](C)N(C(C)=O)C3)n2)c1 (racemic) [Compound 00016]
pEC50: > 6.70

The record that follows has no pEC50 shown yet.
# input Look up pEC50 for this molecule: CC(=O)N1C[C@H](c2nc(Nc3cccc(F)c3)cc(-c3cncc(O)c3)n2)CC[C@@H]1C (stereo in doubt)
# output > 6.70

----------
Target: BRD9 (Homo sapiens, UniProt Q9H8M2)
Construct: T7 phage strains displaying bromodomains were grown in parallel
Sequence (Q9H8M2 136-240 limits assumed): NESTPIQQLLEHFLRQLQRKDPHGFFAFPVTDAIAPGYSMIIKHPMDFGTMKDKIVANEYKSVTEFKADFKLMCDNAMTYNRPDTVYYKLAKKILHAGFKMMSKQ
Assay: BromoKdMAX (BROMOscan, DiscoverX)
pKd: −log10 of the molar value.
Assay readout: pKd

# input API: value(readout=pKd, system=BRD9 (Homo sapiens, UniProt Q9H8M2)) for record `COc1cncc(-c2cc(Nc3cccc(F)c3)nc([C@@H]3CC[C@H](C)N(C(C)=O)C3)n2)c1`
# output < 5.00
